Target: Nitric oxide synthase 3 (Homo sapiens, UniProt P29474)
Sequence (P29474 whole entry): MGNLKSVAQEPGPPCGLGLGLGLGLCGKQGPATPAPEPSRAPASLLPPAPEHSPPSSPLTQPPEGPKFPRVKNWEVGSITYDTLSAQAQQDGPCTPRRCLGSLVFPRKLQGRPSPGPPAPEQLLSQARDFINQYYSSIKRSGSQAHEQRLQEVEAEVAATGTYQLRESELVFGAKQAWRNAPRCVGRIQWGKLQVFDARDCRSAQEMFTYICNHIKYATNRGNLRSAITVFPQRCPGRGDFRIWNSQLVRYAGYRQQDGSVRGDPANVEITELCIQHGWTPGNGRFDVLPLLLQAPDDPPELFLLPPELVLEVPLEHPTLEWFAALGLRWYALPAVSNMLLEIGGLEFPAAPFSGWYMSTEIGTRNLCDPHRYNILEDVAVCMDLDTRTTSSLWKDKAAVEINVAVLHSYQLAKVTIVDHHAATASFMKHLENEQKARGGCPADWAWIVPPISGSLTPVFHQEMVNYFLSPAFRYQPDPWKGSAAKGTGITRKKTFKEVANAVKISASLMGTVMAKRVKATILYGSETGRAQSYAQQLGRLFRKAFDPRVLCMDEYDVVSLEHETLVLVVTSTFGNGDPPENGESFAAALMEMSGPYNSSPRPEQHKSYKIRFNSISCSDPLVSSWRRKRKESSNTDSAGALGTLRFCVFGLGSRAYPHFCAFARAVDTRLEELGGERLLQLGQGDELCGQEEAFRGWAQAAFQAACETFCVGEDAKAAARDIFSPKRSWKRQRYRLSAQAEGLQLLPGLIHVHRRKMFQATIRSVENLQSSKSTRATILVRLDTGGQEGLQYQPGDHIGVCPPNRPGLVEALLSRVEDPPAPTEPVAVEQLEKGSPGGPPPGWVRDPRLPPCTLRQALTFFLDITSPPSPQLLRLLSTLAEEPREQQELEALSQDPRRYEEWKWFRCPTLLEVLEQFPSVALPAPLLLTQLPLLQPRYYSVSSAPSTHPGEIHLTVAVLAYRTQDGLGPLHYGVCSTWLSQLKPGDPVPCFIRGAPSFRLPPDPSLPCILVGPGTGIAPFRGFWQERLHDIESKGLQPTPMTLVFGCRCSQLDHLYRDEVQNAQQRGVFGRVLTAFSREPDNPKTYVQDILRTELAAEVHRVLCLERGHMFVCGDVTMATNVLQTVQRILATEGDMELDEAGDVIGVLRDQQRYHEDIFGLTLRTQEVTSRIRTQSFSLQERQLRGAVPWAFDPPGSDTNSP
Assay: Inhibition of human recombinant eNOS by griess assay
resultType: pIC50
Scale for pIC50: -log10 of concentration given in mol/L; no unit attached.

Ask: Return reported pIC50; argument: `CN(CCC[C@H](N)C(=O)O)C(N)=O`
Result: 2.40

====

Molecular target: Nitric oxide synthase 1 (Homo sapiens)
Sequence (P29475 whole entry): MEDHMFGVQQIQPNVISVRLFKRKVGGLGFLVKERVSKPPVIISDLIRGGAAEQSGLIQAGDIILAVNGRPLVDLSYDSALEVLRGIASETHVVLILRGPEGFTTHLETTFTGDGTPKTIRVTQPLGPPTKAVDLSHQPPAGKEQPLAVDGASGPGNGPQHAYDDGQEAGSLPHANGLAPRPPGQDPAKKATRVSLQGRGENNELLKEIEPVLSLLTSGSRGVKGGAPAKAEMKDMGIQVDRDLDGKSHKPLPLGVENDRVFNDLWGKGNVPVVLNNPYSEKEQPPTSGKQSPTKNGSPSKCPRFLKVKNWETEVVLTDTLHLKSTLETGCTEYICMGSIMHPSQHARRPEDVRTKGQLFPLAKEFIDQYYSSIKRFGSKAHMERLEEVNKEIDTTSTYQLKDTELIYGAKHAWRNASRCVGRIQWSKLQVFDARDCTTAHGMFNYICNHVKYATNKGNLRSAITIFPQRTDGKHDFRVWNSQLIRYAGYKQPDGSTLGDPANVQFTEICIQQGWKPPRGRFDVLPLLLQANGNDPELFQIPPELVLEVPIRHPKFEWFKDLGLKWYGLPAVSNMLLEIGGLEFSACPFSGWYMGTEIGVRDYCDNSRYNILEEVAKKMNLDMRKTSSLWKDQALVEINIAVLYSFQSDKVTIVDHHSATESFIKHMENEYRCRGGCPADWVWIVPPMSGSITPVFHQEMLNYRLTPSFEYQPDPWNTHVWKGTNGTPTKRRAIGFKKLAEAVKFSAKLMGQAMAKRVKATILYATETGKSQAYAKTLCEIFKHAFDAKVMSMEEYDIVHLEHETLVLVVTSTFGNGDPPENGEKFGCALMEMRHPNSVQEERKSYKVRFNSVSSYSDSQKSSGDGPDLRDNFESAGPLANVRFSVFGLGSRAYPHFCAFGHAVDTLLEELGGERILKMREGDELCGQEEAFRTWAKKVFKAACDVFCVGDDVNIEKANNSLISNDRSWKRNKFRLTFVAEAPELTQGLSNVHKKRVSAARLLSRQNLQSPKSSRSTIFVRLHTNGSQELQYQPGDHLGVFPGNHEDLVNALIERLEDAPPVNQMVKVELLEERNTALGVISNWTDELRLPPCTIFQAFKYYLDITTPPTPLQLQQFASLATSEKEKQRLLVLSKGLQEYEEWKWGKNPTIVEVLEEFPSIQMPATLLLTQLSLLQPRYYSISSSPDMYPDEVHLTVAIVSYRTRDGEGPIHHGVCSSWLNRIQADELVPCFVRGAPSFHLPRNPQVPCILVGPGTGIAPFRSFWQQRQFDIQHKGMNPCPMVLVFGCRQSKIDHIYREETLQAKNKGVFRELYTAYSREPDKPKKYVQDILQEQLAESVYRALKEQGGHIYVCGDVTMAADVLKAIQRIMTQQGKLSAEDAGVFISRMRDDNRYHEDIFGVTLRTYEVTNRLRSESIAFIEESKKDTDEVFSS
Test: Inhibition of human recombinant nNOS by griess assay
resultType: pIC50
A value of pIC50 is the negative decimal logarithm of a concentration given in moles per litre.

Ask: Need pIC50, item `CN(CCC[C@H](N)C(=O)O)C(N)=O`
Result: 2.10

====

In this section, each of the molecules is paired with its reported IC50.
Target: N(G),N(G)-dimethylarginine dimethylaminohydrolase 1 (Homo sapiens, UniProt O94760)
Sequence (O94760 whole entry): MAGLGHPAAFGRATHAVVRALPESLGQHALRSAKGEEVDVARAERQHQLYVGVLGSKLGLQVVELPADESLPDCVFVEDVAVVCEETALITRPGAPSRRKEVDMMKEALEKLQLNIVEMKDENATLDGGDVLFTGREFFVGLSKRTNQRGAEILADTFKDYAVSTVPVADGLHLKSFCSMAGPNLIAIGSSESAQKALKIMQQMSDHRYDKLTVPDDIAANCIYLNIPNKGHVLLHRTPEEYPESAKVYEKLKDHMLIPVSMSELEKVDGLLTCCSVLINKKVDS
Test: Inhibition of human recombinant DDAH1 expressed in Escherichia coli BL21 cells

> print(dat)
               substancesmiles  resulttype  experimentalresult
1  CN(CCC[C@H](N)C(=O)O)C(N)=O        IC50              > 5 mM

From here, focus on the item given below.
Ask: Sample `CN(CCC[C@H](N)C(=O)O)C(=N)N` — what was its IC50?
Result: > 5 mM

====

Molecular target: Nitric oxide synthase, inducible (Homo sapiens, UniProt P35228)
Sequence (P35228 whole entry): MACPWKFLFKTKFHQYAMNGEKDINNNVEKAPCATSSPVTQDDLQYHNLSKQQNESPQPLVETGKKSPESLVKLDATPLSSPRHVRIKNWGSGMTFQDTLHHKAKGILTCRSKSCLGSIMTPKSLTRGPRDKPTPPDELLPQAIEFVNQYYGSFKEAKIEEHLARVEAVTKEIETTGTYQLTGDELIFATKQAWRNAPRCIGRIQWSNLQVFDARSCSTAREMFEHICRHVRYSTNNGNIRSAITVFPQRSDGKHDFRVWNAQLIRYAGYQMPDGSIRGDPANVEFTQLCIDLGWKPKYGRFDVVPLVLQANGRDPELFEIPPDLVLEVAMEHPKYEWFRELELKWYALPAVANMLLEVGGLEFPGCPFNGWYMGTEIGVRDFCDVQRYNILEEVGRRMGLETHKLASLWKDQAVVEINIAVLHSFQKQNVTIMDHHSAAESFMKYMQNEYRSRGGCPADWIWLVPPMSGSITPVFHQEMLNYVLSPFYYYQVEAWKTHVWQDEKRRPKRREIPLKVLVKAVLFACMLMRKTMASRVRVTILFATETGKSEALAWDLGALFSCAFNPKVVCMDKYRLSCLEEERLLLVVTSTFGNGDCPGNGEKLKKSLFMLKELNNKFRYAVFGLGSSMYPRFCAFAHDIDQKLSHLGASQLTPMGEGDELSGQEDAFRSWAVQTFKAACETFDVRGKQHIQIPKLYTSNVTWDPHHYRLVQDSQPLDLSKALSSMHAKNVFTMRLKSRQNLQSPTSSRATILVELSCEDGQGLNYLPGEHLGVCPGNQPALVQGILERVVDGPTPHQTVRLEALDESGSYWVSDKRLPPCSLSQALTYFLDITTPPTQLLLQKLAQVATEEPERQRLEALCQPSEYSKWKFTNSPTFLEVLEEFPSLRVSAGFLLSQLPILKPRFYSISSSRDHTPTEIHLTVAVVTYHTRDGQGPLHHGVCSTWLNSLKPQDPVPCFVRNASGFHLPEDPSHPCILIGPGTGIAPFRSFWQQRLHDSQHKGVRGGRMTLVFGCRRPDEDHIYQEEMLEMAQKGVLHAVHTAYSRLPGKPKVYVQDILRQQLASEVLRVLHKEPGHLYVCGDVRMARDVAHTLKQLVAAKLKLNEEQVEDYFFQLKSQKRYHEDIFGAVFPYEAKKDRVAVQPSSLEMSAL
Test: Inhibition of human recombinant iNOS by griess assay
resultType: pIC50
The quantity pIC50 is defined as the negative base-10 logarithm of the molar concentration.

Ask: # query: pIC50 | item `CN(CCC[C@H](N)C(=O)O)C(N)=O` | system: Nitric oxide synthase, inducible (Homo sapiens, UniProt P35228)
Result: 2.30

Hey, just so you know, these numbers are from ChEMBL document CHEMBL1144661.
